# MEASUREMENT_TARGET: PSG G335A (PSD-95)
# RUN_DESCRIPTION: FP displacement (competition) of FITC-15 AA CRIPT by library peptide, IC50 and Ki
# PARTICULARS: read-out: IC50 (µM), PSG G335A; FP displacement of FITC-15 AA CRIPT probe by PSD library peptide; protein PSG G335A
Decision: IC50 beneath 200 µM gives True; IC50 meeting or exceeding 200 µM gives False.

[
  {
    "MOLECULE_SMILES": "CC(=O)N[C@@H](Cc1ccc(O)cc1)C(=O)N[C@@H](CCC(=O)O)C(=O)N[C@@H](CCC(=O)O)C(=O)N[C@@H](CCC(=O)O)C(=O)N[C@@H](CC(C)C)C(=O)N[C@@H](CCC(N)=O)C(=O)N[C@@H](CC(=O)O)C(=O)N[C@@H](CO)C(=O)N[C@@H](CCCNC(=N)N)C(=O)N[C@H](C(=O)N[C@@H](Cc1ccc(O)cc1)C(=O)N[C@H](C(=O)N[C@@H](CO)C(=O)N[C@@H](CO)C(=O)N[C@@H](CC(C)C)C(=O)O)C(C)C)C(C)C",
    "MEASUREMENT_TARGET": "PSG G335A (PSD-95)",
    "DISCRETE_LABEL": "True"
  },
  {
    "MOLECULE_SMILES": "CC[C@H](C)[C@H](NC(=O)[C@H](CC(N)=O)NC(=O)CNC(=O)CNC(=O)[C@H](CO)NC(=O)[C@H](Cc1ccc(O)cc1)NC(=O)[C@H](CCC(=O)O)NC(=O)[C@@H]1CCCN1C(=O)[C@H](Cc1ccc(O)cc1)NC(C)=O)C(=O)N[C@H](C(=O)N[C@@H](CCCNC(=N)N)C(=O)N[C@H](C(=O)N[C@@H](CO)C(=O)N[C@@H](C)C(=O)N[C@@H](CC(C)C)C(=O)O)C(C)C)C(C)C",
    "MEASUREMENT_TARGET": "PSG G335A (PSD-95)",
    "DISCRETE_LABEL": "False"
  },
  {
    "MOLECULE_SMILES": "CC(=O)N[C@@H](Cc1ccc(O)cc1)C(=O)N[C@@H](CCCNC(=N)N)C(=O)N[C@@H](CCC(N)=O)C(=O)N1CCC[C@H]1C(=O)N[C@@H](CC(C)C)C(=O)N1CCC[C@H]1C(=O)N[C@@H](CC(=O)O)C(=O)N[C@@H](CO)C(=O)N[C@@H](CC(N)=O)C(=O)N1CCC[C@H]1C(=O)N[C@@H](CCC(=O)O)C(=O)N[C@@H](CCC(=O)O)C(=O)N[C@@H](CO)C(=O)N[C@@H](CO)C(=O)N[C@H](C(=O)O)C(C)C",
    "MEASUREMENT_TARGET": "PSG G335A (PSD-95)",
    "DISCRETE_LABEL": "False"
  },
  {
    "MOLECULE_SMILES": "CC[C@H](C)[C@H](NC(=O)[C@H](CO)NC(=O)[C@@H]1CCCN1C(=O)[C@H](CCSC)NC(=O)[C@H](CCCCN)NC(=O)[C@H](CCCCN)NC(=O)[C@H](Cc1ccc(O)cc1)NC(=O)[C@@H](NC(=O)[C@H](CCCNC(=N)N)NC(=O)[C@H](CCCNC(=N)N)NC(=O)[C@H](Cc1ccc(O)cc1)NC(C)=O)C(C)C)C(=O)N[C@@H](CCC(=O)O)C(=O)N[C@@H](CO)C(=O)N[C@@H](CC(=O)O)C(=O)N[C@H](C(=O)O)C(C)C",
    "MEASUREMENT_TARGET": "PSG G335A (PSD-95)",
    "DISCRETE_LABEL": "False"
  }
]

Continue with the molecule presented below.
Q: Lab note: IC50 threshold 200 µM. Does this molecule come in strictly under it? `CC(=O)N[C@@H](Cc1ccc(O)cc1)C(=O)N1CCC[C@H]1C(=O)N[C@@H](CCC(N)=O)C(=O)N[C@@H](Cc1c[nH]cn1)C(=O)N[C@@H](CC(C)C)C(=O)N[C@@H](CCCNC(=N)N)C(=O)N[C@H](C(=O)N[C@@H](C)C(=O)N[C@@H](CO)C(=O)N[C@@H](CCCCN)C(=O)N[C@@H](CC(N)=O)C(=O)N[C@@H](CCC(=O)O)C(=O)N[C@H](C(=O)N[C@H](C(=O)N[C@H](C(=O)O)C(C)C)[C@@H](C)O)C(C)C)[C@@H](C)O`
Ans: False

###

# MEASUREMENT_TARGET: PSG G322A G335A (PSD-95)
# RUN_DESCRIPTION: FP displacement (competition) of FITC-15 AA CRIPT by library peptide, IC50 and Ki
# PARTICULARS: read-out: IC50 (µM), PSG G322A G335A; FP displacement of FITC-15 AA CRIPT probe by acetylated PSD library peptide (P-13 to P0 plus extra N-terminal Y)
Ends that are not written are not given here.
ASSAY_ENDPOINT: IC50 (µM)
Lab book: enter the figure in µM, no units written.

Take a look at these entries with their results.
[
  {
    "SUBSTANCE": "Ac-YLTGAPLATSDETSI [SEM4F]",
    "ASSAY_ENDPOINT": "IC50",
    "MEAS_VALUE": 536
  },
  {
    "SUBSTANCE": "Ac-YPPSSPTLSVSSTSL [KLH17]",
    "ASSAY_ENDPOINT": "IC50",
    "MEAS_VALUE": 997
  },
  {
    "SUBSTANCE": "Ac-YQETLFVGNDQVSEI [TM108]",
    "ASSAY_ENDPOINT": "IC50",
    "MEAS_VALUE": 1070
  }
]

Q: // lookup IC50 for Ac-YDKPLSKKHAHSVNF [PDLI5]
Ans: 973

Q: And what about the substance Ac-YQEQNKVLWIPASPL [DLG5] ?
Ans: 2830

###

# MEASUREMENT_TARGET: PSG G335A (PSD-95)
# RUN_DESCRIPTION: FP displacement (competition) of FITC-15 AA CRIPT by library peptide, IC50 and Ki
# PARTICULARS: read-out: Ki (µM), PSG G335A; FP displacement of FITC-15 AA CRIPT probe by PSD library peptide; protein PSG G335A
ASSAY_ENDPOINT: Ki
Quick note: number first, unit second.

Consider the following illustrative entries.
[
  {
    "MOLECULE_SMILES": "CC(=O)N[C@@H](Cc1ccc(O)cc1)C(=O)N[C@@H](CC(=O)O)C(=O)N[C@@H](CO)C(=O)N[C@H](C(=O)N[C@@H](CCC(=O)O)C(=O)N[C@@H](CCC(N)=O)C(=O)N[C@@H](CO)C(=O)N[C@@H](CC(=O)O)C(=O)N[C@H](C(=O)N[C@@H](CCCNC(=N)N)C(=O)N[C@@H](Cc1ccccc1)C(=O)N[C@@H](CO)C(=O)N[C@@H](CO)C(=O)N[C@@H](C)C(=O)N[C@H](C(=O)O)C(C)C)C(C)C)[C@@H](C)O",
    "MEASUREMENT_TARGET": "PSG G335A (PSD-95)",
    "Ki": "178 µM"
  },
  {
    "MOLECULE_SMILES": "CC[C@H](C)[C@H](NC(=O)[C@H](CCC(=O)O)NC(=O)[C@@H](NC(=O)[C@H](CO)NC(=O)[C@H](CCC(=O)O)NC(=O)[C@@H](NC(=O)[C@H](CCCNC(=N)N)NC(=O)[C@H](CCC(=O)O)NC(=O)[C@H](CC(C)C)NC(=O)[C@H](CCCNC(=N)N)NC(=O)[C@H](CO)NC(=O)[C@@H]1CCCN1C(=O)[C@@H](NC(=O)[C@H](Cc1c[nH]c2ccccc12)NC(=O)[C@H](Cc1ccc(O)cc1)NC(C)=O)[C@@H](C)O)[C@@H](C)CC)[C@@H](C)O)C(=O)O",
    "MEASUREMENT_TARGET": "PSG G335A (PSD-95)",
    "Ki": "224 µM"
  },
  {
    "MOLECULE_SMILES": "CC(=O)N[C@@H](Cc1ccc(O)cc1)C(=O)N[C@@H](CO)C(=O)N[C@@H](CO)C(=O)N[C@H](C(=O)N[C@@H](CO)C(=O)N1CCC[C@H]1C(=O)N[C@@H](CCC(N)=O)C(=O)N[C@@H](CO)C(=O)N[C@H](C(=O)N[C@@H](CC(=O)O)C(=O)N[C@@H](CCCCN)C(=O)N[C@@H](CO)C(=O)N[C@@H](CO)C(=O)N[C@H](C(=O)N[C@H](C(=O)O)C(C)C)[C@@H](C)O)[C@@H](C)O)[C@@H](C)O",
    "MEASUREMENT_TARGET": "PSG G335A (PSD-95)",
    "Ki": "215 µM"
  }
]

Q: Param item = `CC(=O)N[C@@H](Cc1ccc(O)cc1)C(=O)N[C@@H](CCC(=O)O)C(=O)N[C@@H](CCC(=O)O)C(=O)N[C@@H](CCC(=O)O)C(=O)N[C@@H](CC(C)C)C(=O)N[C@@H](CCC(N)=O)C(=O)N[C@@H](CC(=O)O)C(=O)N[C@@H](CO)C(=O)N[C@@H](CCCNC(=N)N)C(=O)N[C@H](C(=O)N[C@@H](Cc1ccc(O)cc1)C(=O)N[C@H](C(=O)N[C@@H](CO)C(=O)N[C@@H](CO)C(=O)N[C@@H](CC(C)C)C(=O)O)C(C)C)C(C)C` ; retrieve measured Ki.
Ans: 32 µM

Q: Input `CC(=O)N[C@@H](Cc1ccc(O)cc1)C(=O)N[C@@H](CC(C)C)C(=O)N[C@@H](C)C(=O)N[C@@H](CC(=O)O)C(=O)N[C@@H](CCC(=O)O)C(=O)N[C@H](C(=O)N[C@@H](CO)C(=O)N[C@@H](C)C(=O)N[C@@H](CO)C(=O)N[C@@H](CC(C)C)C(=O)N[C@@H](C)C(=O)N[C@@H](CCCCN)C(=O)N[C@@H](CCC(N)=O)C(=O)NCC(=O)N[C@@H](CC(C)C)C(=O)O)C(C)C`
Ans: 260 µM

Q: Then this compound: `CC[C@H](C)[C@H](NC(=O)[C@H](CC(N)=O)NC(=O)CNC(=O)CNC(=O)[C@H](CO)NC(=O)[C@H](Cc1ccc(O)cc1)NC(=O)[C@H](CCC(=O)O)NC(=O)[C@@H]1CCCN1C(=O)[C@H](Cc1ccc(O)cc1)NC(C)=O)C(=O)N[C@H](C(=O)N[C@@H](CCCNC(=N)N)C(=O)N[C@H](C(=O)N[C@@H](CO)C(=O)N[C@@H](C)C(=O)N[C@@H](CC(C)C)C(=O)O)C(C)C)C(C)C`
Ans: 84 µM

Q: Queued: `CC[C@H](C)[C@H](NC(=O)[C@H](CO)NC(=O)[C@@H]1CCCN1C(=O)[C@H](CCSC)NC(=O)[C@H](CCCCN)NC(=O)[C@H](CCCCN)NC(=O)[C@H](Cc1ccc(O)cc1)NC(=O)[C@@H](NC(=O)[C@H](CCCNC(=N)N)NC(=O)[C@H](CCCNC(=N)N)NC(=O)[C@H](Cc1ccc(O)cc1)NC(C)=O)C(C)C)C(=O)N[C@@H](CCC(=O)O)C(=O)N[C@@H](CO)C(=O)N[C@@H](CC(=O)O)C(=O)N[C@H](C(=O)O)C(C)C`
Ans: 95 µM

Q: Also need `CC(=O)N[C@@H](Cc1ccc(O)cc1)C(=O)N[C@@H](CCCNC(=N)N)C(=O)N[C@@H](CCC(N)=O)C(=O)N1CCC[C@H]1C(=O)N[C@@H](CC(C)C)C(=O)N1CCC[C@H]1C(=O)N[C@@H](CC(=O)O)C(=O)N[C@@H](CO)C(=O)N[C@@H](CC(N)=O)C(=O)N1CCC[C@H]1C(=O)N[C@@H](CCC(=O)O)C(=O)N[C@@H](CCC(=O)O)C(=O)N[C@@H](CO)C(=O)N[C@@H](CO)C(=O)N[C@H](C(=O)O)C(C)C` , thanks.
Ans: 117 µM

Measured values drawn from paper PMC9490041 for this set.
